B1: SFRS1 (parent)
chain: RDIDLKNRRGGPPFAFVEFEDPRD

variants of: B1; assay: protein stability index of a GFP-peptide fusion (GPS, HEK-293T) (PSI 1-6); higher = more stable; details: c terminus: a fixed tail appended;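 note: lentivirally expressed fusions sorted by FACS into six bins by GFP to DsRed ratio, PSI derived from sequencing read proportions per bin multiplied by bin number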
Below is a list of entries, each paired with its recorded protein stability index value.

# mutations, result
measured = [
    ("D24S", 3.02),
    ("K6C", 3.91),
    ("F16D", 5.04),
    ("N7A", 3.61),
    ("F19Y", 4.11),
    ("K6S", 4.35),
]

### Prompt # protein stability index lookup, item N7M
### Response 3.26

### Prompt # protein stability index lookup, item D21R
### Response 3.08

### Prompt # protein stability index lookup, item R9P
### Response 4.16

### Prompt # protein stability index lookup, item A15L
### Response 3.76

### Prompt # protein stability index lookup, item E20Y
### Response 2.46

### Prompt # protein stability index lookup, item R23C
### Response 3.67

### Prompt # protein stability index lookup, item P12E
### Response 4.72

### Prompt # protein stability index lookup, item K6H
### Response 4.71

### Prompt # protein stability index lookup, item F14S
### Response 5.3

### Prompt # protein stability index lookup, item D4N
### Response 3.61
